Test system: KARPAS-299
Method Summary: Combination study, ATPLite 72 h, dose matrix (Synergy Score, CI50)
Details: combination with Compound 1
Where a name gives a salt, the structure may show the parent alone.

Molecule	System Name	CI50 inhibition
Nc1ncn([C@@H]2O[C@H](CO)[C@@H](O)[C@H]2O)c(=O)n1	KARPAS-299	W (W=≥1)
CC(C)C[C@H](NC(=O)[C@H](Cc1ccccc1)NC(=O)c1cnccn1)B(O)O	KARPAS-299	U (U=0.7 to <1)
CO[C@H]1C[C@@H]2CC[C@@H](C)[C@@](O)(O2)C(=O)C(=O)N2CCCC[C@H]2C(=O)O[C@H]([C@H](C)C[C@@H]2CC[C@@H](OCCO)[C@H](OC)C2)CC(=O)[C@H](C)/C=C(\C)[C@@H](O)[C@@H](OC)C(=O)[C@H](C)C[C@H](C)/C=C/C=C/C=C/1C	KARPAS-299	W (W=≥1)
COc1ccc(-c2ccc3c(N4CCOC[C@@H]4C)nc(N4CCOC[C@@H]4C)nc3n2)cc1CO	KARPAS-299	U (U=0.7 to <1)
CCCCCCCCCCCCCCCCCCOP(=O)([O-])OC1CC[N+](C)(C)CC1	KARPAS-299	W (W=≥1)
CC(C)C[C@H](NC(=O)[C@H](CCc1ccccc1)NC(=O)CN1CCOCC1)C(=O)N[C@@H](Cc1ccccc1)C(=O)N[C@@H](CC(C)C)C(=O)[C@@]1(C)CO1	KARPAS-299	W (W=≥1)
COc1cccc2c1C(=O)c1c(O)c3c(c(O)c1C2=O)C[C@@](O)(C(=O)CO)C[C@@H]3O[C@H]1C[C@H](N)[C@H](O)[C@H](C)O1 [Doxorubicin HCl]	KARPAS-299	U (U=0.7 to <1)
